Test system: HS 578T breast
Experiment: NCI tumour cell line growth inhibition, 48 h; in the data active = GI50 below about 0.43 µM; inactive = the rest
Just give me one of these, please: T = active, F = inactive

These recorded examples may help you get a feel for the data.
Compound	Category Label
[N-]=[N+]=NCCCn1c2c(c3ccccc3c1=O)C(=O)c1cc(Br)ccc1-2	F
FC(F)(F)CNc1nccc(-c2cnn3ncccc23)n1	F

Which outcome was assigned to COc1ccc(-c2c(C#N)c(N)nc3c2COc2ccc(F)cc2-3)cc1OC in this test?
F

###

Tested on: NCI-H23 lung
Experiment: NCI tumour cell line growth inhibition, 48 h; in the data active = GI50 below about 0.43 µM; inactive = the rest
Just give me one of these, please: 1.0 for active, 0.0 for inactive

These recorded examples may help you get a feel for the data.
Given Smiles	Category Label
O=[N+]([O-])c1ccc2scc3c4ccccc4nc-3c2c1	0.0
COc1cc2c(cc1OCCCCCN1CCN(c3cc(=O)oc4ccccc34)CC1)N=C[C@@H]1CCCN1C2=O	1.0
O=C(Nc1ccc(Oc2cccc(Cl)c2)c(Cl)c1)c1cnccn1	0.0
Cc1cc(I)cc(CN(C)CCN2CCOCC2)c1O	0.0
CCC(=C/[C@H](C)C/C=C/C(C)=C/[C@@H](C)C(=O)[C@@H](C)[C@H](O)[C@@H](C)CC)/C=C/[C@@H]1OC(=O)C=C[C@@H]1C	1.0
Cc1cc(Nc2ncc(F)c(N[C@H]3[C@@H](C(N)=O)[C@@H]4C=C[C@H]3C4)n2)ccc1N1CCN(C)CC1	0.0

Which outcome was assigned to Cn1c(-c2c(N)n(Cc3ccc(C(F)(F)F)cc3)c3nc(C#N)c(C#N)nc23)nc2ccccc21 in this test?
0.0

Which outcome was assigned to COc1ccc(-c2c(C#N)c(N)nc3c2COc2ccc(F)cc2-3)cc1OC in this test?
0.0

Which outcome was assigned to Cc1ccc(C)c(COc2cc(NC(=O)c3ccc4c(c3)OCO4)ccc2N(C)S(C)(=O)=O)c1 in this test?
1.0
